Biological target: human TAS2R1 (Homo sapiens, UniProt Q9NYW7)
Construct: expressed in transfected cells; host or cells: HEK293T-Gα16gust44
Sequence (Q9NYW7 1-299): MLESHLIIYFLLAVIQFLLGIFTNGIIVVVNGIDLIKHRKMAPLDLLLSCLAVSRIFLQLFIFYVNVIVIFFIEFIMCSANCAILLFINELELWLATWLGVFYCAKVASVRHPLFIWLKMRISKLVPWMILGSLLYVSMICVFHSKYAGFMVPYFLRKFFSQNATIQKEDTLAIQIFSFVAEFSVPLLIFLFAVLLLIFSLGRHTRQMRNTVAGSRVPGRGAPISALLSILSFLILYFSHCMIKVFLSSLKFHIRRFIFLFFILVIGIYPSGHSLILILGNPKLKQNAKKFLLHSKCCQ
Test: Calcium imaging assay (FLIPR), HEK293T-Gα16gust44 cells transfected with human TAS2R1
Assay type: cell-based
Conditions: calcium trace, sheet TAS2R1; Time 341.562 s

{"smiles structure": "C[C@H](CCC(=O)O)[C@H]1CC[C@H]2[C@@H]3[C@H](O)C[C@@H]4C[C@H](O)CC[C@]4(C)[C@H]3CC[C@]12C", "measured on": "human TAS2R1 (Homo sapiens, UniProt Q9NYW7)", "RLU [RLU]": 124.793}
{"smiles structure": "C[C@H](CCC(=O)O)[C@H]1CC[C@H]2[C@@H]3[C@H](O)C[C@@H]4C[C@H](O)CC[C@]4(C)[C@H]3C[C@H](O)[C@]12C", "measured on": "human TAS2R1 (Homo sapiens, UniProt Q9NYW7)", "RLU [RLU]": -18.5874}
{"smiles structure": "C[C@H](CCC(=O)O)[C@H]1CC[C@H]2[C@@H]3CC[C@@H]4C[C@H](O)CC[C@]4(C)[C@H]3CC[C@]12C", "measured on": "human TAS2R1 (Homo sapiens, UniProt Q9NYW7)", "RLU [RLU]": 224.802}
{"smiles structure": "C[C@H](CCC(=O)O)[C@H]1CC[C@H]2[C@@H]3[C@@H](O)C[C@@H]4C[C@H](O)CC[C@]4(C)[C@H]3CC[C@]12C", "measured on": "human TAS2R1 (Homo sapiens, UniProt Q9NYW7)", "RLU [RLU]": 10.616}

---

Target: human TAS2R4 (Homo sapiens)
Construct: expressed in transfected cells; host or cells: HEK293T-Gα16gust44
Sequence (Q9NYW5 1-299): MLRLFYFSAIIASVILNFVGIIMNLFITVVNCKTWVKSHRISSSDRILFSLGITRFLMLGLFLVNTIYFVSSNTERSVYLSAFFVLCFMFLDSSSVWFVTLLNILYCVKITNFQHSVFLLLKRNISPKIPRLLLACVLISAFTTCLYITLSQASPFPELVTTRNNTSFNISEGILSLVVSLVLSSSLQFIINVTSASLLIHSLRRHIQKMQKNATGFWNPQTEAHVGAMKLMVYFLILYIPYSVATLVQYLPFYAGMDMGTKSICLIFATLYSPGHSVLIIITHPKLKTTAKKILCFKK
Assay: Calcium imaging assay (FLIPR), HEK293T-Gα16gust44 cells transfected with human TAS2R4; note: test concentration or dose not given here
Assay type: cell-based
Settings: Time (s) 84.781 (TCA, TLCA: 84.782)
Assign t whenever RLU, fluorescence trace does not fall below 600 RLU; assign f whenever it does.

{"smiles structure": "C[C@H](CCC(=O)O)[C@H]1CC[C@H]2[C@@H]3[C@@H](O)C[C@@H]4C[C@H](O)CC[C@]4(C)[C@H]3CC[C@]12C", "class assignment": "f"}
{"smiles structure": "C[C@H](CCC(=O)NCC(=O)O)[C@H]1CC[C@H]2[C@@H]3[C@H](O)C[C@@H]4C[C@H](O)CC[C@]4(C)[C@H]3C[C@H](O)[C@]12C", "class assignment": "t"}
{"smiles structure": "C[C@H](CCC(=O)NCCS(=O)(=O)O)[C@H]1CC[C@H]2[C@@H]3CC[C@@H]4C[C@H](O)CC[C@]4(C)[C@H]3CC[C@]12C", "class assignment": "f"}
{"smiles structure": "C[C@H](CCC(=O)O)[C@H]1CC[C@H]2[C@@H]3CC[C@@H]4C[C@H](O)CC[C@]4(C)[C@H]3C[C@H](O)[C@]12C", "class assignment": "f"}
{"smiles structure": "C[C@H](CCC(=O)NCCS(=O)(=O)O)[C@H]1CC[C@H]2[C@@H]3[C@H](O)C[C@@H]4C[C@H](O)CC[C@]4(C)[C@H]3C[C@H](O)[C@]12C", "class assignment": "t"}
{"smiles structure": "C[C@H](CCC(=O)O)[C@H]1CC[C@H]2[C@@H]3[C@H](O)C[C@@H]4C[C@H](O)CC[C@]4(C)[C@H]3C[C@H](O)[C@]12C", "class assignment": "t"}

Just for reference, paper PMC10247784 is where these values come from.
